Source: paper PMC10177380

- protocol-description: Reduction with ascorbic acid (AsA) in PBS followed by 1H-NMR and 1D-195Pt-NMR
- Type: physicochemical
- test-parameters: estimated 100% reduction, PBS in D2O, 37 °C

# compound, Reduction Times T100%
data = [
    ("COc1ccc2cc([C@H](C)C(=O)[O][Pt+2]3([OH])[N]4C=CC=c5cc(C)c6c(c54)[N]3C=CC=6)ccc2c1.N[C@H]1CCCC[C@@H]1N (stereo partly shown) [Complex 2, [Pt^IV(5-Mephen)(SS-DACH)(NPX)(OH)]^2+]", "post 60 min"),
    ("COc1ccc2cc([C@H](C)C(=O)[O][Pt+2]3([OH])[N]4C=CC=c5ccc6c(c54)[N]3C=CC=6)ccc2c1.N[C@H]1CCCC[C@@H]1N [Complex 1, [Pt^IV(phen)(SS-DACH)(NPX)(OH)]^2+]", "post 60 min"),
    ("COc1ccc2cc([C@H](C)C(=O)[O][Pt+2]3([OH])[N]4C=CC=c5c(C)c(C)c6c(c54)[N]3C=CC=6)ccc2c1.N[C@H]1CCCC[C@@H]1N", "post 60 min"),
    ("COc1ccc2c(c1)c(CC(=O)OCC(=O)[O][Pt-2]13([OH])([NH2+][C@H]4CCCC[C@@H]4[NH2+]1)[n+]1cccc4cc(C)c5ccc[n+]3c5c41)c(C)n2C(=O)c1ccc(Cl)cc1 [Complex 5, [Pt^IV(5-Mephen)(SS-DACH)(ACE)(OH)]^2+]", "10 to 15 min"),
]

---

- System: multiple cell lines
- protocol-description: MTT growth inhibition, over all cell lines tested
- Assay type: cell-based
- test-parameters: mean over all cell lines tested; read-out: Mean GI50 Values
Recorded GI50 by entry

# molecule, GI50
data = [
    ("COc1ccc2c(c1)c(CC(=O)OCC(=O)[O][Pt-2]13([OH])([NH2+][C@H]4CCCC[C@@H]4[NH2+]1)[n+]1cccc4c(C)c(C)c5ccc[n+]3c5c41)c(C)n2C(=O)c1ccc(Cl)cc1", "32 nM"),
    ("COc1ccc2c(c1)c(CC(=O)OCC(=O)O)c(C)n2C(=O)c1ccc(Cl)cc1", "> 50000 nM"),
    ("COc1ccc2c(c1)c(CC(=O)OCC(=O)[O][Pt-2]13([OH])([NH2+][C@H]4CCCC[C@@H]4[NH2+]1)[n+]1cccc4ccc5ccc[n+]3c5c41)c(C)n2C(=O)c1ccc(Cl)cc1 [Complex 4, [Pt^IV(phen)(SS-DACH)(ACE)(OH)]^2+]", "735 nM"),
    ("COc1ccc2cc([C@H](C)C(=O)O)ccc2c1", "> 50000 nM"),
    ("COc1ccc2cc([C@H](C)C(=O)[O][Pt+2]3([OH])[N]4C=CC=c5ccc6c(c54)[N]3C=CC=6)ccc2c1.N[C@H]1CCCC[C@@H]1N [Complex 1, [Pt^IV(phen)(SS-DACH)(NPX)(OH)]^2+]", "931 nM"),
]

---

- Test system: non-tumour derived MCF10A breast line
- protocol-description: MTT growth inhibition, 72 h, MCF10A
- Assay type: cell-based
observable: log10 GI50 (log10 of the value in nM)

# compound, log10 GI50
measured = [
    ("COc1ccc2c(c1)c(CC(=O)OCC(=O)[O][Pt-2]13([OH])([NH2+][C@H]4CCCC[C@@H]4[NH2+]1)[n+]1cccc4c(C)c(C)c5ccc[n+]3c5c41)c(C)n2C(=O)c1ccc(Cl)cc1", 0.53),
    ("COc1ccc2cc([C@H](C)C(=O)[O][Pt+2]3([OH])[N]4C=CC=c5c(C)c(C)c6c(c54)[N]3C=CC=6)ccc2c1.N[C@H]1CCCC[C@@H]1N", 1.56),
    ("COc1ccc2cc([C@H](C)C(=O)[O][Pt+2]3([OH])[N]4C=CC=c5ccc6c(c54)[N]3C=CC=6)ccc2c1.N[C@H]1CCCC[C@@H]1N [Complex 1, [Pt^IV(phen)(SS-DACH)(NPX)(OH)]^2+]", 2.65),
    ("COc1ccc2c(c1)c(CC(=O)OCC(=O)[O][Pt-2]13([OH])([NH2+][C@H]4CCCC[C@@H]4[NH2+]1)[n+]1cccc4cc(C)c5ccc[n+]3c5c41)c(C)n2C(=O)c1ccc(Cl)cc1 [Complex 5, [Pt^IV(5-Mephen)(SS-DACH)(ACE)(OH)]^2+]", 1.30),
    ("COc1ccc2c(c1)c(CC(=O)OCC(=O)[O][Pt-2]13([OH])([NH2+][C@H]4CCCC[C@@H]4[NH2+]1)[n+]1cccc4ccc5ccc[n+]3c5c41)c(C)n2C(=O)c1ccc(Cl)cc1 [Complex 4, [Pt^IV(phen)(SS-DACH)(ACE)(OH)]^2+]", 2.56),
    ("COc1ccc2cc([C@H](C)C(=O)[O][Pt+2]3([OH])[N]4C=CC=c5cc(C)c6c(c54)[N]3C=CC=6)ccc2c1.N[C@H]1CCCC[C@@H]1N (stereo partly drawn) [Complex 2, [Pt^IV(5-Mephen)(SS-DACH)(NPX)(OH)]^2+]", 2.49),
]
